Just for reference, ChEMBL document CHEMBL4689842 is where these values come from.

The following compounds are shown together with reported Population Apoptotic (%) values.
test system: U2OS; assay: Multiplex assay against U2OS; assay type: toxicity, cell-based; settings: human, 12 h, 10 µM, compound concentration 10 uM, replicate 2
Your answer is read as %, so omit the unit and give the number.

Please provide the recorded Population Apoptotic (%) for Cc1nc(Nc2n[nH]c3c2CN(C(=O)N[C@H](CN(C)C)c2ccccc2)C3(C)C)c2sccc2n1 , tested on U2OS. 75

And what about the compound CC[C@H](C)C(=O)O[C@H]1C[C@@H](C)C=C2C=C[C@H](C)[C@H](CC[C@@H]3C[C@@H](O)CC(=O)O3)[C@H]21 ? 100

Okay, and CN1CCN(CCOc2cc(OC3CCOCC3)c3c(Nc4c(Cl)ccc5c4OCO5)ncnc3c2)CC1 ? 75

What do we get for CN(C)C(=O)/C(C#N)=C/c1ccc(-c2nc3cnc4[nH]ccc4c3n2C2CCCCC2)o1 ? 18

###

tested on: HEK-293T; experiment: Multiplex assay against HEK293T; format: toxicity, cell-based; conditions: human, 24 h, 10 µM, compound concentration 10 uM, replicate 2
// values below are reported Population Healthy Nuclei (%)
Write the value in % as a bare number.

Known Population Healthy Nuclei (%) results, listed for orientation:
| compound | target-entity | result-unit | Population Healthy Nuclei (%) |
| --- | --- | --- | --- |
| C=CC(=O)Nc1cccc(C(=O)Nc2ccc(Nc3cc(-c4[nH]c(SC)nc4C)ccn3)cc2)c1 | HEK-293T | % | 51 |
| CN(C)CC#Cc1ccc(OCCCc2sc(N3CCc4cccc(C(=O)Nc5nc6ccccc6s5)c4C3)nc2C(=O)O)c(F)c1 | HEK-293T | % | 52 |
| COc1cc(-n2cnc3cc(-c4ccc(Cl)cc4)sc3c2=O)ccc1OCCN1CCCC1 | HEK-293T | % | 22 |
| O=C1NCN(c2ccccc2)C12CCN(CCCOc1ccc(F)cc1)CC2 [SPIRAMIDE] | HEK-293T | % | 54 |
| c1cn2cc(-c3ccc4cn[nH]c4c3)nc(Nc3ccc(N4CCOCC4)cc3)c2n1 | HEK-293T | % | 12 |
| Cc1[nH]c(/C=C2\C(=O)Nc3ccc(S(=O)(=O)N(C)c4cccc(Cl)c4)cc32)c(C)c1C(=O)N1CCN(C)CC1 | HEK-293T | % | 35 |
| C=CC(=O)Nc1ccc2ncnc(Nc3ccc(OCc4cccc(F)c4)c(Cl)c3)c2c1.Cc1ccc(S(=O)(=O)O)cc1 | HEK-293T | % | 30 |
| COc1cccc([C@@H](C)NCCCc2ccccc2Cl)c1.Cl [TECALCET HYDROCHLORIDE] | HEK-293T | % | 41 |
| CN1CCC[C@@H]1CCO[C@](C)(c1ccccc1)c1ccc(Cl)cc1.O=C(O)/C=C/C(=O)O [CLEMASTINE FUMARATE] | HEK-293T | % | 20 |
| C=CC(=O)Nc1cc2c(Nc3ccc(F)c(Cl)c3)ncnc2cc1OCCCN1CCOCC1.Cl.Cl [CANERTINIB DIHYDROCHLORIDE] | HEK-293T | % | 73 |

I have this compound here, COc1ncc(-c2ccc3nccc(-c4ccnnc4)c3c2)cc1NS(=O)(=O)c1ccc(F)cc1F , and I need its recorded Population Healthy Nuclei (%). 19

Also, CCN(CC)CCCCNc1ncc2cc(-c3cc(OC)cc(OC)c3)c(NC(=O)NC(C)(C)C)nc2n1 please. 80
